Provenance of the data: the CheMixHub ionic liquid set

# TEST_METHOD_NOTES: xn = mol fraction of the nth substance listed
# CONDITION_DETAILS: 298.15 K; 101 kPa; x1 = 0.02551
MEASURED_ATTRIBUTE: electrical conductivity (S/m)

[
  {
    "COMPOUND": "CCc1n(S(=O)(=O)O)cc[n+]1S(=O)(=O)O.O=C([O-])C(F)(F)F + CC#N",
    "UNIT_LABEL": "S/m",
    "OBSERVED_VALUE": 1.11
  },
  {
    "COMPOUND": "Cc1n(S(=O)(=O)O)cc[n+]1S(=O)(=O)O.O=C([O-])C(F)(F)F + CC#N",
    "UNIT_LABEL": "S/m",
    "OBSERVED_VALUE": 1.26
  },
  {
    "COMPOUND": "O=C([O-])C(F)(F)F.O=S(=O)(O)n1cc[n+](S(=O)(=O)O)c1 + CC#N",
    "UNIT_LABEL": "S/m",
    "OBSERVED_VALUE": 1.54
  },
  {
    "COMPOUND": "CCc1n(S(=O)(=O)O)cc[n+]1S(=O)(=O)O.O=C([O-])C(F)(F)F + CO",
    "UNIT_LABEL": "S/m",
    "OBSERVED_VALUE": 3.08
  }
]

----------
In this section, each of the compounds is paired with its reported electrical conductivity.
# TEST_METHOD_NOTES: xn = mol fraction of the nth substance listed
# CONDITION_DETAILS: 298.15 K; 101 kPa; x1 = 0.0052
MEASURED_ATTRIBUTE: electrical conductivity (S/m)

[
  {
    "COMPOUND": "O=C([O-])C(F)(F)F.O=S(=O)(O)n1cc[n+](S(=O)(=O)O)c1 + CO",
    "MEASURED_ATTRIBUTE": "electrical conductivity",
    "OBSERVED_VALUE": 1.85
  },
  {
    "COMPOUND": "O=C([O-])C(F)(F)F.O=S(=O)(O)n1cc[n+](S(=O)(=O)O)c1 + CC#N",
    "MEASURED_ATTRIBUTE": "electrical conductivity",
    "OBSERVED_VALUE": 0.305
  },
  {
    "COMPOUND": "CCc1n(S(=O)(=O)O)cc[n+]1S(=O)(=O)O.O=C([O-])C(F)(F)F + CO",
    "MEASURED_ATTRIBUTE": "electrical conductivity",
    "OBSERVED_VALUE": 1.51
  },
  {
    "COMPOUND": "CCc1n(S(=O)(=O)O)cc[n+]1S(=O)(=O)O.O=C([O-])C(F)(F)F + CC#N",
    "MEASURED_ATTRIBUTE": "electrical conductivity",
    "OBSERVED_VALUE": 0.323
  },
  {
    "COMPOUND": "Cc1n(S(=O)(=O)O)cc[n+]1S(=O)(=O)O.O=C([O-])C(F)(F)F + CC#N",
    "MEASURED_ATTRIBUTE": "electrical conductivity",
    "OBSERVED_VALUE": 0.351
  }
]

----------
# TEST_METHOD_NOTES: xn = mol fraction of the nth substance listed
# CONDITION_DETAILS: 298.15 K; 101 kPa; x1 = 0.0104
The following compounds are listed with their measured electrical conductivity values.
MEASURED_ATTRIBUTE: electrical conductivity (S/m)

[
  {
    "COMPOUND": "Cc1n(S(=O)(=O)O)cc[n+]1S(=O)(=O)O.O=C([O-])C(F)(F)F + CO",
    "UNIT_LABEL": "S/m",
    "OBSERVED_VALUE": 1.52
  },
  {
    "COMPOUND": "Cc1n(S(=O)(=O)O)cc[n+]1S(=O)(=O)O.O=C([O-])C(F)(F)F + CC#N",
    "UNIT_LABEL": "S/m",
    "OBSERVED_VALUE": 0.528
  },
  {
    "COMPOUND": "O=C([O-])C(F)(F)F.O=S(=O)(O)n1cc[n+](S(=O)(=O)O)c1 + CC#N",
    "UNIT_LABEL": "S/m",
    "OBSERVED_VALUE": 0.52
  },
  {
    "COMPOUND": "CCc1n(S(=O)(=O)O)cc[n+]1S(=O)(=O)O.O=C([O-])C(F)(F)F + CC#N",
    "UNIT_LABEL": "S/m",
    "OBSERVED_VALUE": 0.517
  }
]

----------
# TEST_METHOD_NOTES: xn = mol fraction of the nth substance listed
# CONDITION_DETAILS: 283.15 K; 101 kPa; x1 = 0.02551
MEASURED_ATTRIBUTE: electrical conductivity (S/m)

[
  {
    "COMPOUND": "Cc1n(S(=O)(=O)O)cc[n+]1S(=O)(=O)O.O=C([O-])C(F)(F)F + CC#N",
    "OBSERVED_VALUE": 1.36
  },
  {
    "COMPOUND": "CCc1n(S(=O)(=O)O)cc[n+]1S(=O)(=O)O.O=C([O-])C(F)(F)F + CO",
    "OBSERVED_VALUE": 3.57
  },
  {
    "COMPOUND": "CCc1n(S(=O)(=O)O)cc[n+]1S(=O)(=O)O.O=C([O-])C(F)(F)F + CC#N",
    "OBSERVED_VALUE": 1.21
  },
  {
    "COMPOUND": "O=C([O-])C(F)(F)F.O=S(=O)(O)n1cc[n+](S(=O)(=O)O)c1 + CC#N",
    "OBSERVED_VALUE": 1.78
  }
]

----------
# TEST_METHOD_NOTES: xn = mol fraction of the nth substance listed
# CONDITION_DETAILS: 308.15 K; 101 kPa; x1 = 0.02551

[
  {
    "COMPOUND": "O=C([O-])C(F)(F)F.O=S(=O)(O)n1cc[n+](S(=O)(=O)O)c1 + CO",
    "electrical conductivity [S/m]": 3.89
  },
  {
    "COMPOUND": "Cc1n(S(=O)(=O)O)cc[n+]1S(=O)(=O)O.O=C([O-])C(F)(F)F + CC#N",
    "electrical conductivity [S/m]": 1.15
  },
  {
    "COMPOUND": "CCc1n(S(=O)(=O)O)cc[n+]1S(=O)(=O)O.O=C([O-])C(F)(F)F + CC#N",
    "electrical conductivity [S/m]": 0.824
  },
  {
    "COMPOUND": "O=C([O-])C(F)(F)F.O=S(=O)(O)n1cc[n+](S(=O)(=O)O)c1 + CC#N",
    "electrical conductivity [S/m]": 1.25
  }
]

----------
Reported electrical conductivity values are given for each entry in this list.
# TEST_METHOD_NOTES: xn = mol fraction of the nth substance listed
# CONDITION_DETAILS: 313.15 K; 101 kPa; x1 = 0.02551

[
  {
    "MOLECULE": "Cc1n(S(=O)(=O)O)cc[n+]1S(=O)(=O)O.O=C([O-])C(F)(F)F + CC#N",
    "UNIT_LABEL": "S/m",
    "electrical conductivity": 1.1
  },
  {
    "MOLECULE": "CCc1n(S(=O)(=O)O)cc[n+]1S(=O)(=O)O.O=C([O-])C(F)(F)F + CO",
    "UNIT_LABEL": "S/m",
    "electrical conductivity": 2.7
  },
  {
    "MOLECULE": "CCc1n(S(=O)(=O)O)cc[n+]1S(=O)(=O)O.O=C([O-])C(F)(F)F + CC#N",
    "UNIT_LABEL": "S/m",
    "electrical conductivity": 0.816
  },
  {
    "MOLECULE": "O=C([O-])C(F)(F)F.O=S(=O)(O)n1cc[n+](S(=O)(=O)O)c1 + CO",
    "UNIT_LABEL": "S/m",
    "electrical conductivity": 3.76
  },
  {
    "MOLECULE": "O=C([O-])C(F)(F)F.O=S(=O)(O)n1cc[n+](S(=O)(=O)O)c1 + CC#N",
    "UNIT_LABEL": "S/m",
    "electrical conductivity": 1.25
  }
]
